- Test system: AncSZ;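 further: 11-residue human phosphosite peptides and single-mutation variants displayed on the E. coli surface, counted by deep sequencing, each peptide's frequency after selection divided by its frequency in the unselected input library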;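 further: frequency after pTyr selection over input frequency; kinase dosed for 20-30% of maximal phosphorylation in three min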
- Test summary: phosphorylation enrichment, bacterial display (enrichment ratio); higher = better substrate or ligand; peptides without Tyr show the background
Lab note: anything with phosphorylation enrichment at or over 0.9 counts as 1; the rest go in -1.

{"Sequence record": "RRVLVYVGRGA [QDPR_Y16_G17V]", "Label class": 1}
{"Sequence record": "DHAGMYGLGDR [MAPT_Y18_T17M]", "Label class": -1}
{"Sequence record": "ARMTNYGLPRF [TSPAN12_Y138_YF]", "Label class": -1}
{"Sequence record": "WQLEIYRASRP [ERCC4_Y594_R589W]", "Label class": 1}
{"Sequence record": "RGKDSYETSQL [SPP1_Y225]", "Label class": -1}
{"Sequence record": "LIDSSYLTRTA [GREB1L_Y1063]", "Label class": -1}
{"Sequence record": "NFCPGYNNFFN [USH2A_Y467_R464C_YF]", "Label class": -1}
{"Sequence record": "IRKDLYANNVL [ACTA2_Y296]", "Label class": -1}
{"Sequence record": "FLRKEYGGLNV [CBR3_Y81]", "Label class": -1}
{"Sequence record": "LKYAIYFEARE [LAMA2_Y1258]", "Label class": 1}
{"Sequence record": "PTDGVYVMPTV [MYO7A_Y1668_S1666G]", "Label class": 1}
{"Sequence record": "FPLAEYTEVKT [ALDH1A3_Y497_A493P_YF]", "Label class": 1}
{"Sequence record": "YQCKHYACIRQ [TIMP3_Y182_S179C]", "Label class": -1}
{"Sequence record": "PPEFSYGLQTQ [SRA1_Y35_Q32E]", "Label class": -1}
{"Sequence record": "SVIKEYQIRQV [USH2A_Y3623_G3618S]", "Label class": -1}
{"Sequence record": "FGYPGYQSKHY [TIMP3_Y177]", "Label class": -1}
{"Sequence record": "FASTGYVIAIQ [GRIN2B_Y762_G763V]", "Label class": 1}
{"Sequence record": "ELAKFYKLHHI [AK7_Y391_N389K_YF]", "Label class": -1}
{"Sequence record": "LWPIWYRCRRP [MRGPRX1_Y130_H133R]", "Label class": -1}
{"Sequence record": "CTTIHYHFMCN [TP53_Y234_N235H_YF]", "Label class": 1}
{"Sequence record": "IHSGIYYKPES [L2HGDH_Y102]", "Label class": 1}
{"Sequence record": "SSSGGYGGGYG [KRT19_Y61_A60G]", "Label class": -1}
{"Sequence record": "QRNEEYCLLDS [ITK_Y198_R193Q]", "Label class": 1}
{"Sequence record": "KRLDGYVLEGR [IGSF9_Y656]", "Label class": -1}
{"Sequence record": "SHMVDYQPFRK [TEX37_Y25_YF]", "Label class": -1}
{"Sequence record": "YAFQLYDLDRD [CHP2_Y123]", "Label class": 1}
{"Sequence record": "ILGTYYETGSI [PAX2_Y73_R71T]", "Label class": 1}
{"Sequence record": "DVSVVCSEVKT [FCRL4_Y493_Y493C]", "Label class": 1}
{"Sequence record": "IVAEFYDNLPH [DEGS1_Y284_A280V_YF]", "Label class": 1}
{"Sequence record": "MANFMYKAGPS [MAML2_Y515_YF]", "Label class": 1}
{"Sequence record": "ALLVFYAATIA [SLC20A2_Y187_P184L]", "Label class": 1}
{"Sequence record": "RAILDYIASKY [GSTA3_Y74_N73D]", "Label class": -1}
{"Sequence record": "ADKSAYLMGVN [MYH7_Y386_L390V]", "Label class": -1}
{"Sequence record": "WQQQSYLFSGI [CTNNB1_Y30_D32Y_YF]", "Label class": 1}
{"Sequence record": "LIGRRYDDPEV [HSPA9_Y128]", "Label class": 1}
{"Sequence record": "NYYDTCIKTCL [IQGAP2_Y1445_Y1445C]", "Label class": 1}
{"Sequence record": "SGGCSYGSGGG [KRT1_Y539_G537C]", "Label class": -1}
{"Sequence record": "AEYGLYGAMVW [VSX2_Y222_R227W]", "Label class": 1}
{"Sequence record": "VEKGSYSALRA [ABCC2_Y845_L849R]", "Label class": -1}
{"Sequence record": "SIKDKYVTAFY [KCNH2_Y611_L615F]", "Label class": -1}
{"Sequence record": "NAGDYYDLYGG [PTPN11_Y63_T59A]", "Label class": 1}
{"Sequence record": "DFKIIYIAPMR [SNRNP200_Y540]", "Label class": 1}
{"Sequence record": "PLDNLYAEPAV [PRPS1_Y146_V142L]", "Label class": 1}
{"Sequence record": "KFADVYVGICL [B3GALNT1_Y269_E266A]", "Label class": 1}
{"Sequence record": "EFKKHYGFSLF [ANXA3_Y295_YF]", "Label class": 1}
{"Sequence record": "QKINNYLTVPA [SLC9A1_Y683]", "Label class": -1}
{"Sequence record": "TEDPEYDVQSK [PTCHD3_Y335]", "Label class": 1}
{"Sequence record": "SFKNKYGMVAQ [APOB_Y276_YF]", "Label class": -1}
{"Sequence record": "GREYIYVDPMQ [PDGFRA_Y574_H570R]", "Label class": 1}
{"Sequence record": "LLRLAYLADIF [ZBED5_Y476]", "Label class": -1}
{"Sequence record": "PKEQRYSFLQN [GH1_Y68_K67R]", "Label class": 1}
{"Sequence record": "TLQSMYGCDVG [HLA-B_Y123]", "Label class": 1}
{"Sequence record": "PADCRYYAFPQ [GAMT_Y222]", "Label class": 1}
{"Sequence record": "MPAVTYTPAMR [MEGF10_Y895]", "Label class": -1}
